molecular target: T1, monkey 4-1BB on CHOK1 cells (monkey); assay: FACS, CHOK1-c4-1BB cells; Ab 0.0032 ug/ml
T1 construct: whole, on cells; also called CHOK1-c4-1BB
Consider the following binders; for each one, report its average fluorescence intensity.
Answers are plain numbers, in MFI.

Field: average fluorescence intensity. Fill in for each record below.
1. 57B3D10 (antibody, V domains shown, also called 4-1BB fully human antibody 57B3D10) VH: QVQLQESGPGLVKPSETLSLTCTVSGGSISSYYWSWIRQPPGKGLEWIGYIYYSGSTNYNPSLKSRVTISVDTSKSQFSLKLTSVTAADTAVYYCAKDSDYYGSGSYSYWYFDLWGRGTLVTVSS VL: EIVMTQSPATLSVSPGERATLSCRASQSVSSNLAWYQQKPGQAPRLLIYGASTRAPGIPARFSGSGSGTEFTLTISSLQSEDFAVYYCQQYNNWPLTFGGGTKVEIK
2. 172E3E3 (antibody, V domains shown) VH: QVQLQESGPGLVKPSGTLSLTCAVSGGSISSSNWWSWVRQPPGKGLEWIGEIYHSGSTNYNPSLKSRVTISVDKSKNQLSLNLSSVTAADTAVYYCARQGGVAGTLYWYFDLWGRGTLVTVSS VL: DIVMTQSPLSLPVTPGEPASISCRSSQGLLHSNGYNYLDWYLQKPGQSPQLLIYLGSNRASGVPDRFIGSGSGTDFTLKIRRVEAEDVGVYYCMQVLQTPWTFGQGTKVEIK

1. 15
2. 6.6

meta.source: patent US20200347144A1
